# Tested on: CCRIS mutagenicity, Ames/micronucleus/aberration tests
# assay.method.text: CCRIS mutagenicity studies
# applied.conditions: Test System: AMES SALMONELLA TYPHIMURIUM; Strain/Indicator: TA98; Metabolic Activation: NONE
The source made the active and inactive calls. The rule behind the calls is not given here.
Give one outcome, nothing more. List: TRUE = active, FALSE = inactive

Below, 3 compounds whose answers are already recorded.
C[N+](C)(C)NCCC(=O)[O-] :: FALSE
C/C=C(\Cl)C1=CC(=O)[C@]23C[C@H]2C(C)(C)O[C@]3(O)C1=O :: FALSE
ClCc1ccc2ccc3cccc4ccc1c2c34 :: TRUE

// query Assay result, entry "O=C1[C@H]2CC=CC[C@H]2C(=O)N1SC(Cl)(Cl)Cl" — outcome?
// result TRUE

// query Assay result, entry "O=[N+]([O-])c1ccc2ccc3nc4ccccc4c4ccc1c2c34" — outcome?
// result TRUE

// query Assay result, entry "CC[C@@]1(O)C[C@H](O[C@H]2C[C@H](N(C)C)[C@H](O[C@H]3C[C@H](O)[C@H](O[C@@H]4O[C@@H](C)C(=O)C=C4N)[C@H](C)O3)[C@H](C)O2)c2c(cc3c(c2O)C(=O)c2c(O)ccc(O)c2C3=O)[C@H]1C(=O)OC" — outcome?
// result TRUE

// query Assay result, entry OCC(CO)NC1CC(O)(CO)C(O)C(O)C1O (centres undefined) — outcome?
// result FALSE

// query Assay result, entry O=C(Cc1ccccc1)NC(Cc1ccc(Cl)cc1)C(=O)O (centres undefined) — outcome?
// result FALSE

// query Assay result, entry C=CCC1=C(C)C(OC(=O)[C@@H]2[C@@H](C=C(C)C)C2(C)C)CC1=O (some centres undefined) — outcome?
// result FALSE

// query Assay result, entry "CC(C)CCC[C@@H](C)[C@H]1CC[C@H]2[C@@H]3CC4([C@H]5C[C@@H](Br)CC[C@]5(C)[C@H]3CC[C@]12C)S(=O)(=O)CCS4(=O)=O" — outcome?
// result FALSE

// query Assay result, entry CC1=C(C(=O)OCCN(Cc2ccccc2)c2ccccc2)C(c2cccc([N+](=O)[O-])c2)C(P2(=O)OCC(C)(C)CO2)=C(C)N1 (centres undefined) — outcome?
// result FALSE

// query Assay result, entry CC(C)NCC(O)COc1ccc(CC(N)=O)cc1 (centres undefined) — outcome?
// result FALSE

// query Assay result, entry "OCCN1CCN(CCCN2c3ccccc3Sc3ccc(C(F)(F)F)cc32)CC1" — outcome?
// result FALSE

// query Assay result, entry "O=C1CCCc2cc3c(cc21)cc([N+](=O)[O-])c1ccccc13" — outcome?
// result TRUE
